Biological target: T1, human CD19 on Raji cells (human, UniProt P15391 20-556)
T1 construct: whole, on cells
T1 sequence (looked up): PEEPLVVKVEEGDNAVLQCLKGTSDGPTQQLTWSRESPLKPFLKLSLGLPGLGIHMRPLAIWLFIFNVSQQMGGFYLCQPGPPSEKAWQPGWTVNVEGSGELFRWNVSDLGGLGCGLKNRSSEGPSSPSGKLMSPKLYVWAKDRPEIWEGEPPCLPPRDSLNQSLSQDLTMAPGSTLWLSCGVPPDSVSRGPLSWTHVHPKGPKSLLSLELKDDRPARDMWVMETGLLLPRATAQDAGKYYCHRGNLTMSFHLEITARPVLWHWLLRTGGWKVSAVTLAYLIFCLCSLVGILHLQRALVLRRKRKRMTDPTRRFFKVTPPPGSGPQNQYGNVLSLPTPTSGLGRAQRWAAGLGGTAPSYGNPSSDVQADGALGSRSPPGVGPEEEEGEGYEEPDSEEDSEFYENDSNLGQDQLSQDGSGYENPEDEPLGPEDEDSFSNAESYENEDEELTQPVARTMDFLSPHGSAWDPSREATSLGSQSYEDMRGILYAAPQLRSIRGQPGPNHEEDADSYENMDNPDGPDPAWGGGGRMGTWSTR
Assay: FACS on Raji cells
MEASUREMENT_KIND: Maximum mean fluorescence intensity
Write the value as a bare number.

binder="F2.15.26 (antibody, human IgG1, V domains shown, human-murine chimeric antibody, human IgG1) VH: QVQLKESGPGLVAPSQSLSITCTVSGFSLTDYGVSWIRQSPGKGLEWLGVIWGSGDTYYNSVLESRLSINKDNSKNQVFLKMNSLQTDDAAMYFCAKHSYYGGSFAMDYWGQGTSVTVSS VL: DIQMTQTTSSLSASLGDRVTISCRASQDISNYLNWYQQKPDGTVKLLIYYTSRLHSGVPSRFSGSGSGTDYSLTISNLEQEDIATYFCQQGKTLPWTFGGGTKLEIK" measurement_kind="Maximum mean fluorescence intensity" measured=29200
binder="F3.83.9 (antibody, human IgG1, V domains shown, human-murine chimeric antibody, human IgG1) VH: DVQLQESGPGLVKPSQSLSLTCSVTGYSITSGYYWNWIRQFPGNKLEWMGYISYDGGNNYNPSLKNRISITRDTSKNQFFLKLNSVTTEDTATYFCAREDYSNWYFDVWGTGTTVTVSS VL: DIVLTQSPASLAVSLGQRATISCRASQSVSKSSYSYMHWYQQKPGQSPKLLIKYASILKSGVPARFSGSGSGTDFTLNIHPVEEEDTATYYCQHSWEIPWTFGGGTKLEIK" measurement_kind="Maximum mean fluorescence intensity" measured=29700

// switching to the query binder
Exam item: Return reported Maximum mean fluorescence intensity; argument: F5.2.9 (antibody, human IgG1, V domains shown, human-murine chimeric antibody, human IgG1) VH: QVTLKESGPGILQPSQTLSLTCSFSGFSLSTFGLGVGWVRQPSGKGLEWLAHIWWDDDKYYNPALKSRVTVSKETSKNQVFFKIANVDTADSATYYCARLSRGLRRDVVYAMDHWGQGTSVTVSS VL: DIQMTQTTSSLSASLGDRVTISCRASQDISNYLNWYQQKPDGSVKLLISYVSRLQSGVPSRFRGSGSGTDYSLTISNLDQEDIATYFCQQGIAFPYTFGGGTKLDIK
Marked response: 17600
